# System: MOLT-4 leukemia
# Experimental details: NCI tumour cell line growth inhibition, 48 h
Please provide measured GI50 for the entries that follow.

Molecule | Readout label | Result
CC(=O)ON1CCCC(P(=O)(OCCSC(=O)C(C)(C)C)OCCSC(=O)C(C)(C)C)C1=O (stereo not given) | GI50 | 854 nM
C[n+]1c(/C=C/c2c(O)ccc3ccccc23)ccc2ccccc21 | GI50 | 7010 nM

Each molecule below has a recorded value; state its GI50.
1. O=C(Nc1ccc(Br)cc1F)c1cc(Cl)ccc1O
2. O=C(/C=C/c1ccc[nH]1)c1ccc(-n2ccc(C(F)(F)F)n2)cc1
3. COc1ccc(-c2ccc(=O)oc2C#Cc2cc(OC)c(OC)c(OC)c2)cc1O
4. CN(C)C1CCN(C(=O)c2ccc(NC(=O)Nc3ccc(-c4nc(N5CCOCC5)c5cccn5n4)cc3)cc2)CC1
5. COc1ccc(-c2nnc3n(C)c(=O)c4ccccc4n23)cc1N
6. Nc1ncn([C@@H]2O[C@H](CO)[C@@H](O)[C@H]2O)c(=O)n1
7. COc1ccc2nc3ccccc3c(NCc3ccc(F)cc3)c2c1

Out:
["1760 nM", "13800 nM", "952 nM", "45.7 nM", "3920 nM", "3410 nM", "1660 nM"]

In: Please report GI50 with MOLT-4 leukemia for item COc1cc(C(=O)N2CCN(C(=O)c3cc(OC)c(OC)c(OC)c3)C2=S)cc(OC)c1OC .
Out: 23500 nM

###

# Test system: RXF 393 renal
# Experimental details: NCI tumour cell line growth inhibition, 48 h
Readout label: TGI

Compound | Study system | TGI
BrC(=C(c1ccc(OC2CCCCO2)cc1)c1ccc(OC2CCCCO2)cc1)c1ccccc1 (stereo not given) | RXF 393 renal | > 100 µM
CC1OC(c2ccc3c(OCc4ccccc4)cccc3c2O)CC(OCc2ccccc2)[C@H]1OCc1ccccc1 (stereo not given in full) | RXF 393 renal | > 10 µM
CC(NC(=O)Cc1ccccc1)NC(=O)C(C)C(=O)Nc1ccccc1 (stereo not given) | RXF 393 renal | > 100 µM
O=C(CC1C(=O)Nc2ccccc2S1=O)Nc1cc(Cl)ccc1Cl (stereo not given) | RXF 393 renal | > 100 µM
O=C1C=C/C(=N\N=C(c2ccccc2)c2ccccc2)O1 | RXF 393 renal | > 10 µM
N#C/C(=C\c1ccc2ccccc2c1)C(=O)c1ccccc1 | RXF 393 renal | > 55.4 µM

Below is a list of compounds. For each, state its recorded TGI.
1. CSc1cc(-c2cccs2)sc1-c1cc(SC)c(-c2sc(-c3sc(-c4cccs4)cc3SC)cc2SC)s1
2. O=C1CCC(c2ccccc2)=NN1c1nsc2ccccc12

Out:
["> 100 µM", "> 100 µM"]

Go through the items and report each one's TGI.
1. CC1(C)OC[C@@H](O)[C@H](C#N)CO1
2. O=C(O)CCNc1ncnc2nc[nH]c12

Out:
> 100 µM
> 100 µM

###

# System: BT-549 breast
# Experimental details: NCI tumour cell line growth inhibition, 48 h
Label rule, in plain words: TGI of 30 µM and up is fulfilled, under 30 µM is not fulfilled.

Molecule | Assigned category
O=C1CC2(CCC(O)(c3ccc4ccccc4c3)C(C(=O)c3ccc4ccccc4c3)C2)C(=O)c2ccccc2N1 (centres undefined) | fulfilled
C[C@H](CCC(=O)O)[C@H]1CC[C@H]2[C@@H]3C(=O)C[C@@H]4C[C@H](O)CC[C@]4(C)[C@H]3C[C@H](O)[C@]12C | fulfilled
S=c1c2cn[nH]c2nc2scc(-c3ccc(Cl)cc3)n12 | not fulfilled
C=C1CC(C#N)(C#N)[C@H]2C3CCCC3C[C@@H]12 (some centres undefined) (tested in a mixture with another compound) | fulfilled

In: Quick check, TGI >= 30 µM? CC1(C)OC[C@@H](O)[C@H](C#N)CO1
Out: fulfilled

In: Can CC1=CCC([C@@](C)(O)CCCC(C)(C)N=C=S)CC1 (some centres undefined) be said to have TGI at or above 30 µM?
Out: fulfilled

In: Could you tell me if the measured TGI of CC(C)(/C=C(\C#N)C(=O)N1CCC[C@@H](n2nc(-c3ccc(Oc4ccccc4)cc3F)c3c(N)ncnc32)C1)N1CCN(C2COC2)CC1 reaches 30 µM or more?
Out: not fulfilled

In: Check the entry NC(N)=N/N=C/c1c(Cl)cccc1Cl : does TGI equal or exceed 30 µM?
Out: fulfilled

In: Could you verify whether the entry COc1cc(C(=O)N2CCN(C(=O)c3cc(OC)c(OC)c(OC)c3)C2=S)cc(OC)c1OC shows TGI of no less than 30 µM?
Out: fulfilled
